# Tested on: PPARg DBDmut:RXRa IVT, anti-PPARg (DBD mutation: PPARg1 K132A/R137A, NR concentration 270 nM, RXRa partner concentration 90 nM)
# method: PBM binding z-score (relative to random genomic background probes); higher = stronger binding; sequences stand for … in GC…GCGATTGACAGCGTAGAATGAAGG
Decision: PBM binding z-score compared against 0.4; not below it gives Satisfied, below it gives Not satisfied.

>  <chainSequence>
ATCGAAAGGTCGTGAGCTGAGTATACAGAAAGGC

>  <class>
Satisfied

$$$$
>  <chainSequence>
AGAATGAGGTTGCCAAAGATCAGGGAAACGCTTG

>  <class>
Not satisfied

$$$$
>  <chainSequence>
CCGACTGGGGCATAAGGTTACGATAAGCCAGCCC

>  <class>
Not satisfied

$$$$
>  <chainSequence>
CCTCGGAGGACAACAGGAAGTCAGAGCTGCCAGA

>  <class>
Not satisfied

$$$$
>  <chainSequence>
AGAATGAGGTTATTAAGATCTGGGAATTGCGGTC

>  <class>
Satisfied

$$$$
